Tested on: XIP peptide (Xip251-270) binding
test: small-molecule binders of XIP peptide, primary screen, biochemical, small-molecule microarray, fluorescence 635/667 nm, 0.1 µg/mL protein (AID 1182)
study-conditions: fluorescent protein binding, 635 nm, higher = more signal, called active from +8 up or from −8 down
Assignment: determine reported composite z-score for the given compounds.
API note: the answer field is a bare number with no unit suffix.

Sure, the documented composite z-score for CO[C@H]1COC(=O)CC=C[C@@H](C)[C@H](NS(=O)(=O)c2ccc(C)cc2)COC(=O)CCC[C@@H]1C is 0.0922

Record summary for C#CCCCON=C1[C@H]2CCn3c(=O)n(C)c(=O)n3[C@H]2[C@H](O)[C@@H]2O[C@H]12 : reported composite z-score = -0.158

Notebook: C[C@@H](c1ccccc1)N1C(=O)[C@H]2[C@H]3[C@H](O)[C@H](O)CC(=NO[C@@H]4O[C@H](CO)[C@@H](O)[C@H](O)[C@H]4O)[C@@H]3CC[C@H]2C1=O , composite z-score read as -0.0769

Briefly, composite z-score measured for C=CC[C@@H]1C=C[C@H](ON=C[C@@H](C)[C@H](OCc2ccccc2)C(C)C)[C@@H](CO)O1 : 0.142

// recorded composite z-score for CCCNC(=O)OC[C@H]1O[C@H](CCON=C(C)CCN2CCc3nc(CC)c(CC)cc3C2)C=C[C@@H]1Oc1ccc(OC)cc1 : -0.339

The recorded composite z-score for CO[C@@H]1COC(=O)[C@@H](C)NC(=O)CC=C[C@@H](C)[C@H](NS(=O)(=O)c2ccc(C)cc2)COC(=O)[C@H](C)NC(=O)CC=C[C@H]1C is 0.199

Quick note, composite z-score for COC(=O)CC=C[C@@H](C)[C@@H](C=NO[C@@H](C)c1cn([C@H](CO)Cc2ccccc2)nn1)NS(=O)(=O)c1ccc(C)cc1 landed at -0.294

====

test: osmotic lysis modulators in infected erythrocytes, primary screen, PSAC antagonist project, cell-based, P. falciparum Indochina, OD700, 3 h (AID 1156)
study-conditions: higher = more signal, called active from +8 up or from −8 down
The source made the active and inactive calls.
quantity-kind: z-score

Record summary for CCOC(=O)NN=C1C[C@@H](O)[C@@H](O)[C@@H]2[C@@H]3C(=O)N(c4cccc(Oc5ccccc5)c4)C(=O)[C@@H]3CC[C@@H]12 : reported z-score = 0.471 (inactive)

Given item C#CCCCON=C1C[C@@H](O)[C@@H](O)[C@@H]2[C@@H]3C(=O)N(C(C)(C)C)C(=O)[C@@H]3CC[C@@H]12 , the value recorded as its z-score is 0.158 (inactive)

get_value(item= CCOC(=O)C1=NO[C@]2(C=C(Br)C3(OCCCO3)[C@H]3O[C@H]32)C1 , readout=z-score) returns -0.348 (inactive)

====

test: fission yeast growth modulation, primary screen, strain 972, OD600, 24 h, no modulator (AID 1090);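 note: basal condition with compound alone and no growth modifier present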
study-conditions: S. pombe 972 growth, higher = more signal, called active from +8 up or from −8 down
quantity-kind: z-score
Field format: numeric only.

The measured z-score associated with CCN1C(=O)[C@H]2[C@H]3[C@H](O)[C@H](O)CC(=O)[C@@H]3CC[C@H]2C1=O reads -0.268

Item: CCOC(=O)[C@H](CC(C)C)NC(=O)CCC1CC(OC(=O)NCc2ccc3c(c2)OCO3)CC2(CCCC(COC(=O)NCc3cccc(C(F)(F)F)c3)O2)O1 (some centres undefined) | z-score: 0.486

Short answer for O=C1CCCC=C1C(CCc1ccccc1)OC(=O)c1ccc(Br)cc1 (centres undefined) : z-score was -2.94

// z-score value for CO[C@@H]1COC(=O)[C@@H]2CCCN2C(=O)[C@@H](C)COC(=O)CC=C[C@H]1C : 0.0992

====

test: fission yeast growth modulation, primary screen, strain 972, OD600, 24 h, no modulator (AID 1090);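 note: basal condition with compound alone and no growth modifier present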
study-conditions: S. pombe 972 growth, higher = more signal, called active from +8 up or from −8 down
quantity-kind: z-score
Form rule: numeric answer, no unit written next to it.

# compound COC(=O)CC=C[C@@H](C)[C@@H](C=NOC(C)CN1CCCc2nc(C)c(C)cc21)OC (stereo not given in full) ; its z-score = 0.245

CC(=O)OC[C@H]1O[C@H](CCON=C2[C@H]3CCn4c(=O)n(-c5ccccc5)c(=O)n4[C@H]3[C@H](O)[C@@H]3O[C@H]23)C=C[C@@H]1OC(C)=O has a reported z-score of 0.127

// CCOC(=O)NN=C1C[C@@H](O)[C@@H](O)[C@@H]2[C@@H]3C(=O)N(C(C)(C)C)C(=O)[C@@H]3CC[C@H]12 : z-score value = 0.277

Per the record, CCOC(=O)[C@H](CC(C)C)NC(=O)CCC1CC(OC(=O)NCc2cccc3ccccc23)CC2(CCCC(COC(=O)NCc3cccc(C(F)(F)F)c3)O2)O1 (stereo not given in full) has z-score of 0.171

response.value for COC(=O)CC=C[C@@H](C)[C@@H]1C=C[C@H](O)[C@@H](CO)O1 (field: z-score) = 1.08

Sure, the documented z-score for C#CCCCON=C1C[C@@H](O)[C@@H](O)[C@@H]2[C@@H]3C(=O)N(c4cccc(Oc5ccccc5)c4)C(=O)[C@@H]3CC[C@H]12 is 0.202

Reported z-score of CC(CCN1CCCc2nc(C)c(C)cc21)=NO[C@@H](C)c1cc(-c2c(C)cc(C)cc2C)no1 : -2.18

Field z-score (entry O=c1n(Cc2cc3c(cc2Cl)OCO3)c(=O)n2n1CC[C@@H]1C(=NOCc3ccccc3)[C@H]3O[C@H]3[C@@H](O)[C@@H]12 ) reads -1.25

// recorded z-score for COC(=O)[C@@H]1CC[C@H](C)[C@@H](c2ccc(C)cc2)N1C(=O)c1ccc(C=NO[C@H](C)c2cn([C@H](CO)Cc3ccccc3)nn2)cc1 : 0.0048

Measured z-score of C=C(C)C(=O)OCC1CN2[C@@H](CC[C@@H](C)[C@@H]2c2ccc(Br)cc2)C(=O)O1 (stereo not given in full) : -0.369

The compound listed as C#CCCCON=C1[C@H]2CCn3c(=O)n(C)c(=O)n3[C@H]2[C@H](O)[C@@H]2O[C@H]12 has a reported z-score of -0.377

Notebook: CC(C)=CCCC(C)=CCON=C1C[C@@H](O)[C@@H](O)[C@@H]2[C@@H]3C(=O)N(c4ccc(F)cc4F)C(=O)[C@@H]3CC[C@@H]12 , z-score read as -2.43

The reported z-score of the compound CC(C)(C)N1C(=O)[C@H]2[C@H]3[C@H](O)[C@H](O)CC(=NO[C@@H]4O[C@H](CO)[C@@H](O)[C@H](O)[C@H]4O)[C@H]3CC[C@H]2C1=O was -1.05

Summary for this compound, C[C@H]1COC(=O)[C@@H]2CCCN2C(=O)[C@@H](C)COC(=O)[C@H](Cc2ccccc2)NC1=O : z-score is 0.103

Value of z-score reported for the compound CO[C@H]1COC(=O)CC=C[C@@H](C)[C@H](OC)COC(=O)CCC[C@@H]1C is -0.441

Quick note, z-score for CON=Cc1ccc(C(=O)N2[C@H](c3ccc(C)cc3)[C@@H](C)CC[C@H]2C(=O)OC)cc1 landed at -2

For record C[C@H](ON=C1[C@H]2CCn3c(=O)n(-c4ccccc4)c(=O)n3[C@H]2[C@H](O)[C@@H]2O[C@H]12)c1cn([C@H](CO)Cc2ccccc2)nn1 the listed z-score is -0.348

Lab note: measured z-score of CC(C)=CCCC(C)=CCON=C1C[C@@H](O)[C@@H](O)[C@@H]2[C@@H]3C(=O)N(C(C)(C)C)C(=O)[C@@H]3CC[C@@H]12 was 0.451

The measured z-score associated with C[C@@H]1C=CCC(=O)OC[C@H]2O[C@@H](C=C[C@@H]2O)[C@H](C)C=CCC(=O)OC1 reads -1.24

For record O=C1CCCC=C1C(O)CCCCBr (stereo not given) the listed z-score is -20.8

Briefly, z-score measured for CO[C@H]1COC(=O)CC=C[C@@H](C)[C@H](NS(=O)(=O)c2ccc(C)cc2)COC(=O)CCC[C@@H]1C : 0.14

z-score reported for this compound C#CCCCON=C1C[C@@H](O)[C@@H](O)[C@@H]2[C@@H]3C(=O)N(Cc4ccccc4)C(=O)[C@@H]3CC[C@@H]12 : -0.351

The reported z-score of the compound O=C1C=C[C@@H](O)[C@@H]2[C@@H]3C(=O)N(c4ccc(F)cc4F)C(=O)[C@@H]3CC[C@@H]12 was -2.21

Consider CO[C@@H]1COC(=O)CC=C[C@@H](C)[C@@H]2C=C[C@H](O)[C@@H](COC(=O)CC=C[C@H]1C)O2 . Its measured z-score is -0.636

The measured z-score associated with C=CC[C@@H]1C=C[C@H](ON=C(C)CCC(=O)OC[C@H]2O[C@H](c3ccccc3)C=C[C@@H]2Oc2ccc(OC)cc2)[C@@H](CO)O1 reads -0.212
